Where do these numbers come from? They come from ChEMBL document CHEMBL1139265.

test system: Escherichia coli; assay: Inhibition of Escherichia coli MurD assessed as residual activity at 250 uM
Measured Activity, listed per entry for reference.
measure.name: Activity (%)

INSERT INTO results (query_smiles, measure_name, readout_value) VALUES
  ('O=C(O)CC[C@H](NC(=O)c1ccc(CNc2cccc(/C=C3\SC(=O)NC3=O)c2)cc1)C(=O)O', 'Activity', 87),
  ('O=C(O)CC[C@@H](NC(=O)c1ccc(CNc2ccc(/C=C3\SC(=S)NC3=O)cc2)cc1)C(=O)O', 'Activity', 74),
  ('O=C(O)CC[C@H](NC(=O)c1ccc(CNc2ccc(/C=C3\SC(=O)NC3=O)cc2)cc1)C(=O)O', 'Activity', 88),
  ('O=C(O)CC[C@@H](NC(=O)c1ccc(CNc2ccc(/C=C3\SC(=O)NC3=O)cc2)cc1)C(=O)O', 'Activity', 70),
  ('O=C(O)CC[C@@H](NC(=O)c1ccc(CNc2cccc(/C=C3\SC(=O)NC3=O)c2)cc1)C(=O)O', 'Activity', 85),
  ('O=C(O)CC[C@H](NC(=O)c1ccc(CNc2ccc(/C=C3\SC(=S)NC3=O)cc2)cc1)C(=O)O', 'Activity', 68);
